From: PubChem BioAssay (NCI)

System: SK-MEL-2 melanoma
assay details: NCI-60 one-dose screen, 48 h (100 = growth as untreated, 0 = no growth, -100 = all killed)
measurement parameters: 10 µM unless noted
Compounds without any hit were thinned out: in the full panel of roughly 83,000, 20% have a hit.
measure name: growth (%)
Supply the numeric figure in %, leaving out any unit text.

compound	uom	growth
COc1ccc2nc(-c3ccc(Cl)cc3)cc(-c3nnc(SCC(=O)Nc4ccc(/C(C)=N\O)cc4)o3)c2c1	%	63.8
Cc1cc(NC(=O)CNc2nc(Oc3ccc(F)cc3)nc(-c3ccc(F)cc3)n2)ccc1Cl	%	103
CCCCc1n(Cc2ccc3ccccc3n2)cc[n+]1Cc1ccc2ccccc2c1	%	-35.7

Record CCOC(=O)c1c(C)nc2c(c1N)/C(=C/c1cccs1)C(=O)N2c1ccc(OC)cc1 , field growth: 33

Looking up CCOC(=O)/C=C1\SC(=Nc2ccc(C#N)cc2)N(CCN2C(=O)/C(=C/C(=O)OCC)SC2=Nc2ccc(C#N)cc2)C1=O , I found its growth recorded as 80.8

GET /value?item= O=C(Nc1cc(Br)ccn1)c1cc2cc(Nc3nc(-c4ccccc4)nc4ccccc34)ccc2oc1=O &field=growth returns 90.8

Data point: C#CC[C@@H]1C[C@]2(C)[C@H]3CC[C@@H]4[C@H]5[C@H](C(=C)C)CC[C@]5(C(=O)O)CC[C@@]4(C)[C@]3(C)CC[C@H]2C(C)(C)[C@H]1O ; growth = 80.3

Measured growth of CC(C)Cc1cc(CNC(=O)C2[C@H]3CN(C(=O)c4ccccc4)C[C@@H]23)nn1-c1ccccc1 (stereo partly drawn) : 83.8
